Where do these numbers come from? They come from patent US20240166660A1.

Catalogue of IC50 values
- Measured On: KRAS (aa 1-169) G12C, C51S, C80L, C118S (Homo sapiens (Human), UniProt P01116, C118S/C51S/C80L/G12C)
- Sequence (P01116 other isoform, or with tags, fused parts or gaps G12C/C51S/C80L/C118S): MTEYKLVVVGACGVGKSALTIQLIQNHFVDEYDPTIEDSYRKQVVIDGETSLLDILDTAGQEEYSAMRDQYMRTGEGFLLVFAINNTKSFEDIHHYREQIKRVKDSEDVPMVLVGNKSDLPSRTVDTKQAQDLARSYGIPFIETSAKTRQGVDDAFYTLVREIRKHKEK
- Assay Overview: Biochemical functional assay: SOS1-mediated nucleotide exchange of GDP-loaded KRAS G12C, binding to GST-cRaf RBD, FRET readout
- Run Parameters: 3 hrs pre-incubation with compound at 24° C., SOS1, GTPyS, inhibition of nucleotide exchange
- Procedure: Biochemical Functional Assay The KRAS (aa 1-169) G12C, C51S, C80L, C118S with a His-tag was expressed, purified and loaded with GDP in house. […] The inhibition percentage of nucleotide exchange reaction in presence of increasing concentrations of compounds was calculated based on the ratio of fluorescence at 665 nm to that at 620 nm detected on a BMG PHERAstar FSX instrument. The IC50 value of each compound was calculated from fitting the data to the four-parameter logistic model by Dotmatics.
Report the value in nM with no unit label.

>>> value_reported("C=CC(=O)N1CCN(c2nc(OC[C@@H]3CCCN3C)nc3cc(-c4c(Cl)c(C)cc5[nH]ncc45)c4c(c23)OCC4)CC1")
113
>>> value_reported("C=CC(=O)N1CCN(c2nc(OC[C@@H]3CCCN3C)nc3cc(-c4c(Cl)c(C)cc5[nH]ncc45)c4ccoc4c23)CC1")
65
>>> value_reported("C=C(F)C(=O)N1CCN(c2nc(OCC3C[C@@H](OC)CN3C)nc3cc(-c4cccc5cccc(Cl)c45)c4c(c23)OCCC4)C[C@@H]1CC#N (single isomer, unassigned) [Compound B96]")
140
>>> value_reported("C=C(F)C(=O)N1CCN(c2nc(OC[C@@H]3CCCN3C)nc3cc(-c4cccc5cccc(Cl)c45)c4c(c23)OCCC4)C[C@@H]1CC#N (single isomer, unassigned) [Compound B68]")
177
>>> value_reported("C=C(F)C(=O)N1CCN(c2nc(OC[C@@H]3CCCN3C)nc3cc(-c4c(Cl)c(C)cc5[nH]ncc45)c4c(c23)OCCC4)C[C@@H]1CC#N (single isomer, unassigned; atropisomer1) [Compound B12]")
4.6
>>> value_reported("C=C(F)C(=O)N1CCN(c2nc(OC[C@@H]3CCCN3C)nc3cc(-c4ccccc4C4CC4)c4c(c23)OCCC4)C[C@@H]1CC#N")
226

For C=CC(=O)N1CCN(c2ncnc3cc(-c4c(Cl)ccc5[nH]ncc45)c4c(c23)OCCC4)C[C@@H]1CC#N (single isomer, unassigned) [Compound A14] , what is its reported IC50?
79.4

Please answer likewise for C=CC(=O)N1CCN(c2ncnc3cc(-c4cccc5ccccc45)c4c(c23)OCC=C4)C[C@@H]1CC#N
82.1

Also, C=C(F)C(=O)N1CCN(c2nc(OC[C@H]3CCCN3C)nc3cc(-c4cccc5cccc(Cl)c45)c4c(c23)OCCC4)C[C@@H]1CC#N (single isomer, unassigned) [Compound B105] please.
290

Param item: C=CC(=O)N1CCN(c2nc(N3CC(N(C)C)C3)nc3cc(-c4c(Cl)c(C)cc5[nH]ncc45)c4c(c23)OCCC4)C[C@@H]1CC#N
4.7

Then C=CC(=O)N1CCN(c2ncnc3cc(-c4c(O)cccc4F)c4c(c23)OC(C)(C)CC4)C[C@@H]1CC#N ?
559

Check C=C(F)C(=O)N1CCN(c2nc(OC[C@@H]3CCCN3C)nc3cc(-c4c(Cl)c(C)cc5[nH]ncc45)c4ccoc4c23)C[C@@H]1CC#N too.
8.4

Likewise for C=C(F)C(=O)N1CCN(c2nc(OC[C@@H]3CCCN3C)nc3cc(-c4c(O)cccc4F)c4ccoc4c23)C[C@@H]1CC#N ?
1040

Please do the same for C=CC(=O)N1CCN(c2ncnc3cc(-c4cc(F)cc5[nH]ncc45)c4c(c23)OCCC4)C[C@@H]1CC#N as well.
89.8

Same again, this time with C=CC(=O)N1CCN(c2ncnc3cc(-c4c(C)cccc4C)c4c(c23)OCCC4)C[C@@H]1CC#N
262

====

- Measured On: KRAS (aa 1-169) G12C, C51S, C80L, C118S (Homo sapiens (Human), UniProt P01116, C118S/C51S/C80L/G12C)
- Assay Overview: Biochemical functional assay: SOS1-mediated nucleotide exchange of GDP-loaded KRAS G12C, binding to GST-cRaf RBD, FRET readout
- Run Parameters: 3 hrs pre-incubation with compound at 24° C., SOS1, GTPyS, inhibition of nucleotide exchange
Outcome Measure: IC50 (nM)
Use nM as the unit, but write only the number.

Entry C=CC(=O)N1CCN(c2ncnc3cc(-c4c(Cl)ccc5[nH]ncc45)c4c(c23)OCCC4)C[C@@H]1CC#N (single isomer, unassigned) [Compound A15] : reported IC50 = ?
92.6

====

Recorded IC50 values for a group of molecules are listed next.
- Measured On: KRAS (aa 1-169) G12C, C51S, C80L, C118S (Homo sapiens (Human), UniProt P01116, C118S/C51S/C80L/G12C)
- Assay Overview: Biochemical functional assay: SOS1-mediated nucleotide exchange of GDP-loaded KRAS G12C, binding to GST-cRaf RBD, FRET readout
- Run Parameters: 3 hrs pre-incubation with compound at 24° C., SOS1, GTPyS, inhibition of nucleotide exchange
- Method: Biochemical Functional Assay The KRAS (aa 1-169) G12C, C51S, C80L, C118S with a His-tag was expressed, purified and loaded with GDP in house. […] The inhibition percentage of nucleotide exchange reaction in presence of increasing concentrations of compounds was calculated based on the ratio of fluorescence at 665 nm to that at 620 nm detected on a BMG PHERAstar FSX instrument. The IC50 value of each compound was calculated from fitting the data to the four-parameter logistic model by Dotmatics.
Could you give me the number in nM? Just the number is fine.

Reported IC50 for C=C(F)C(=O)N1CCN(c2nc(OC[C@@H]3CCCN3C)nc3cc(-c4c(Cl)c(C)cc5[nH]ncc45)c4c(c23)OCCC4)C[C@@H]1CC#N [Compound B11] : what is it?
7.81

====

- Measured On: KRAS (aa 1-169) G12C, C51S, C80L, C118S (Homo sapiens (Human), UniProt P01116, C118S/C51S/C80L/G12C)
- Assay Overview: Biochemical functional assay: SOS1-mediated nucleotide exchange of GDP-loaded KRAS G12C, binding to GST-cRaf RBD, FRET readout
- Run Parameters: 3 hrs pre-incubation with compound at 24° C., SOS1, GTPyS, inhibition of nucleotide exchange
# reported IC50; entries follow
Unit nM implied. Number only.

Give its IC50 value. Item: C=CC(=O)N1CCN(c2ncnc3cc(-c4c(O)cccc4F)c4c(c23)OCCC4)C[C@@H]1CC#N
89.6

C=C(F)C(=O)N1CCN(c2nc(OC[C@@H]3CCCN3C)nc3cc(-c4ccc(F)c5ccccc45)c4c(c23)OCCC4)C[C@@H]1CC#N ?
152

What about C=C(F)C(=O)N1CCN(c2nc(O[C@@H]3CN(C)C[C@H]3OC)nc3cc(-c4cccc5cccc(Cl)c45)c4c(c23)OCCC4)C[C@@H]1CC#N ?
134

====

- Measured On: KRAS (aa 1-169) G12C, C51S, C80L, C118S (Homo sapiens (Human), UniProt P01116, C118S/C51S/C80L/G12C)
- Assay Overview: Biochemical functional assay: SOS1-mediated nucleotide exchange of GDP-loaded KRAS G12C, binding to GST-cRaf RBD, FRET readout
- Run Parameters: 3 hrs pre-incubation with compound at 24° C., SOS1, GTPyS, inhibition of nucleotide exchange
Outcome Measure: pIC50
// returns pIC50 (minus log10 of molar concentration), number only

Some entries whose results are on file:
>>> value_reported("C=CC(=O)N1CCN(c2nc(N3CCC(N(C)C)C3)nc3cc(-c4c(Cl)c(C)cc5[nH]ncc45)c4c(c23)OCCC4)CC1 (centres unmarked)")
6.86
>>> value_reported("C=C(F)C(=O)N1CCN(c2nc(OC[C@H]3CCCN3C)nc3cc(-c4cccc5cccc(Cl)c45)c4c(c23)OCCC4)C[C@@H]1CC#N (single isomer, unassigned) [Compound B104]")
8.09
>>> value_reported("C=CC(=O)N1CCN(c2nc(OC[C@@H]3CCCN3C)nc3cc(-c4cccc5cccc(Cl)c45)c4c(c23)OCCC4)[C@@H](C)C1")
6.83
>>> value_reported("C=CC(=O)N1CCN(c2ncnc3cc(-c4c(Cl)c(Cl)cc5[nH]ncc45)c4c(c23)OCCC4)C[C@@H]1CC#N")
8.03

Look up pIC50: C=C(F)C(=O)N1CCN(c2nc(OC[C@@H]3CCCN3C)nc3cc(-c4c(Cl)c(C)cc5[nH]ncc45)c4c(c23)OCC4)C[C@@H]1CC#N
8.02
